experimental-target: EphA2 (Homo sapiens (Human), UniProt P29317)
Sequence (P29317 598-890): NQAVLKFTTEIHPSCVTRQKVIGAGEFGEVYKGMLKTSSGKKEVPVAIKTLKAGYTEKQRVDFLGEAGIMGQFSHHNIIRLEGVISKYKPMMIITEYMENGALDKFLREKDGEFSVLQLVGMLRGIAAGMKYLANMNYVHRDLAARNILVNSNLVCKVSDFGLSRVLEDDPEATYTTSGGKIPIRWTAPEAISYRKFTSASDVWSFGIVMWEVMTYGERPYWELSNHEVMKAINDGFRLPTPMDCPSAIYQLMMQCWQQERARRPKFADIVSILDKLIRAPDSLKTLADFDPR
procedure-details: EphA2 kinase inhibition, luciferase-coupled chemiluminescent assay (LCCA)
cond: read-out: EphA2 IC50
Here, each record is paired with measured IC50 data.
property: IC50

- COc1cc2c(Nc3ccc(Cl)c(Cl)c3)ncnc2cc1OCC1CN(CCCCCC#N)CCO1 (stereo not shown): 1000 to 20000 nM
- COc1cc2c(Nc3ccc(Br)c(Cl)c3)ncnc2cc1O[C@H]1CO[C@H]2[C@@H]1OC[C@@H]2OC(F)F: 50 to 1000 nM
- CCN1CCC(c2nc(COc3cc4ncnc(Nc5ccc(Cl)c(Cl)c5)c4cc3OC)no2)CC1: < 50 nM
- COc1cc2c(Nc3ccc(Cl)c(Cl)c3)ncnc2cc1OCC1CC1: 50 to 1000 nM
- COc1cc2c(Nc3ccc(Cl)c(Cl)c3)ncnc2cc1OCCN1CCCCC1: 1000 to 20000 nM
- COc1cc2c(Nc3ccc(Cl)c(Cl)c3)ncnc2cc1OCc1nc2c(s1)CNCC2: 50 to 1000 nM
- COc1cc2c(Nc3ccc(Br)cc3F)ncnc2cc1O[C@@H]1CO[C@@H]2[C@H]1OC[C@H]2F: < 50 nM
- COc1cc2c(Nc3ccc(Cl)c(Cl)c3)ncnc2cc1OCc1noc(-c2c(C)noc2C)n1: 50 to 1000 nM
- COc1cc2c(Nc3ccc(Cl)c(Cl)c3)ncnc2cc1OCc1nc([C@@H]2CCCN2C)no1: 1000 to 20000 nM
- COc1cc2c(Nc3ccc(Cl)c(Cl)c3)ncnc2cc1OCC1CN(C)CCN1C (stereo not shown): 1000 to 20000 nM
- COc1cc2c(Nc3ccc(Br)cc3Cl)ncnc2cc1O[C@@H]1CO[C@@H]2[C@H]1OC[C@H]2F: < 50 nM
- COc1cc2c(Nc3ccc(Cl)c(Cl)c3)ncnc2cc1OCc1noc(-c2ccccc2OC)n1: 50 to 1000 nM
- CCN1CCCC(c2nc(COc3cc4ncnc(Nc5ccc(Cl)c(Cl)c5)c4cc3OC)cs2)C1 (stereo not shown): 1000 to 20000 nM
- COc1cc2c(Nc3ccc(Cl)c(Cl)c3)ncnc2cc1OCc1csc([C@@H]2CCCN2)n1: < 50 nM
- COc1cc2c(Nc3ccc(Cl)c(Cl)c3)ncnc2cc1OCc1nc(-c2ccc(O)c(C(N)=O)c2)cs1: 50 to 1000 nM
- COCCN1CCCOC(COc2cc3ncnc(Nc4ccc(Cl)c(Cl)c4)c3cc2OC)C1 (stereo not shown): 1000 to 20000 nM
- COc1cc2c(Nc3ccc(Cl)c(Cl)c3)ncnc2cc1OCc1nc(N2CCN(C)CC2)no1: 50 to 1000 nM
- COc1cc2c(Nc3cccc(Cl)c3C)ncnc2cc1O[C@H]1CO[C@H]2[C@@H]1OC[C@@H]2OC: 50 to 1000 nM
- COc1cc2c(Nc3ccc(Cl)c(Cl)c3)ncnc2cc1OCc1nnc(-c2ccc(C)cc2)o1: 50 to 1000 nM
- COc1cc2c(Nc3ccc(Cl)c(Cl)c3)ncnc2cc1OCc1noc(C2CCCCN2C(=O)OC(C)(C)C)n1 (stereo not shown): < 50 nM
- COc1cc2c(Nc3ccc(Cl)c(Cl)c3)ncnc2cc1OCC1CN(C)CCO1 (stereo not shown): 50 to 1000 nM
- COc1cc2c(Nc3ccc(Cl)c(Cl)c3)ncnc2cc1OCc1csc(C2CCCCN2C)n1 (stereo not shown): 50 to 1000 nM
- COc1cc2c(Nc3ccc(Cl)c(Cl)c3)ncnc2cc1OCC1CCCCC1: 50 to 1000 nM
- COc1cc2c(Nc3ccc(Br)c(Cl)c3)ncnc2cc1O[C@H]1CO[C@@H]2CCO[C@H]12: 50 to 1000 nM
- COc1cc2c(Nc3ccc(Cl)c(Cl)c3)ncnc2cc1OCc1nc(-c2ccc(C(C)(C)C)cc2)no1: 50 to 1000 nM
- COc1cc2c(Nc3ccc(Cl)c(Cl)c3)ncnc2cc1OCc1nccn1Cc1ccccc1: 1000 to 20000 nM
- COc1cc2c(Nc3ccc(Cl)c(Cl)c3)ncnc2cc1OCCC1OCCO1: 50 to 1000 nM
- COc1cc2c(Nc3ccc(Cl)c(Cl)c3)ncnc2cc1OCC1CN(CCCc2ccccc2)CCO1 (stereo not shown): 1000 to 20000 nM
- COc1cc2c(Nc3ccc(Cl)c(Cl)c3)ncnc2cc1OCCN1CCOCC1: 50 to 1000 nM
- COc1cc2c(Nc3cc(Cl)c(Cl)c(Cl)c3)ncnc2cc1O[C@@H]1CO[C@@H]2[C@H]1OC[C@H]2F: < 50 nM
- CCOC(=O)C(C)N1CCOC(COc2cc3ncnc(Nc4ccc(Cl)c(Cl)c4)c3cc2OC)C1 (stereo not shown): 1000 to 20000 nM

Value source: patent US9796704B2
